Tested on: RAW264.7 cells
Experiment description: Toxicity
Assay type: cell-based
Test parameters: read-out: IC50 Toxicity (Tox.), Alamar blue cell viability
pIC50: −log10 of the molar value.

Smiles input: Cc1c(-c2ccc(O)cc2)nn(-c2ccc(O)cc2)c1-c1ccc(OCCN2CCCCC2)cc1
pIC50: 4.94

Taken from paper PMC7134392.
